- System: S. aureus Newman;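 note: first quartile when negative (synergy) and third quartile when positive (antagonism)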
- protocolNotes: Bliss interaction score (quartile over a dose matrix) (fitness difference); higher = more antagonism (negative = synergy)
reportedProperty: Bliss interaction score
Just the number, please, no unit after it.

Please look at this molecule and report its Bliss interaction score: COc1cccc2c1C(=O)c1c(O)c3c(c(O)c1C2=O)C[C@@](O)(C(=O)CO)C[C@@H]3O[C@H]1C[C@H](N)[C@H](O)[C@H](C)O1 [Doxorubicin] + COc1cc(Cc2cnc(N)nc2N)cc(OC)c1OC [Trimethoprim] 0.0879

Quote Bliss interaction score reported for C[C@@H]1O[C@@H]1P(=O)(O)O [Fosfomycin] + Clc1ccc(COC(Cn2ccnc2)c2ccc(Cl)cc2Cl)c(Cl)c1 [Miconazole] please. 0.103

Please list Bliss interaction score recorded for the molecule CC(=O)Oc1ccccc1C(=O)O [Acetylsalicylicacid] + C[C@@H]1O[C@@H]1P(=O)(O)O [Fosfomycin] -0.0772

Entry CN(C)[C@@H]1C(O)=C(C(N)=O)C(=O)[C@@]2(O)C(O)=C3C(=O)c4c(O)ccc(Cl)c4[C@@](C)(O)[C@H]3C[C@@H]12 [Clortetracycline] + O=C1CN(/N=C/c2ccc([N+](=O)[O-])o2)C(=O)N1 [Nitrofurantoin] needs its Bliss interaction score filled in; supply it. -0.0647

Look up Bliss interaction score of C[C@@H]1O[C@@H]1P(=O)(O)O [Fosfomycin] + CN(C)c1cc(NC(=O)CNC(C)(C)C)c(O)c2c1C[C@H]1C[C@H]3[C@H](N(C)C)C(O)=C(C(N)=O)C(=O)[C@@]3(O)C(O)=C1C2=O [Tigecycline] and report it. -0.0631

Look up Bliss interaction score of N#CC(C#N)=NNc1cccc(Cl)c1 [CCCP] + CN[C@@H]1[C@H](O)[C@H](NC)[C@H]2O[C@@]3(O)C(=O)C[C@@H](C)O[C@H]3O[C@@H]2[C@H]1O [Spectinomycin] and report it. -0.0505

Quote Bliss interaction score reported for C[C@H]1c2cccc(O)c2C(=O)C2=C(O)[C@]3(O)C(=O)C(C(N)=O)=C(O)[C@@H](N(C)C)[C@@H]3[C@@H](O)[C@@H]21 [Doxycycline] + Cc1onc(-c2ccccc2)c1C(=O)N[C@@H]1C(=O)N2[C@@H]1SC(C)(C)[C@@H]2C(=O)O [Oxacillin] please. -0.0136

State its Bliss interaction score for this molecule: O=C(O)c1cn(C2CC2)c2cc(N3CCNCC3)c(F)cc2c1=O [Ciprofloxacin] + CN(C)C(=O)C(CCN1CCC(O)(c2ccc(Cl)cc2)CC1)(c1ccccc1)c1ccccc1 [Loperamide] -0.0992

Please list Bliss interaction score recorded for the molecule CO/N=C(\C(=O)N[C@@H]1C(=O)N2C(C(=O)O)=C(COC(N)=O)CS[C@H]12)c1ccco1 [Cefuroxime] + Cc1cc(NS(=O)(=O)c2ccc(N)cc2)no1 [Sulfamethoxazol] -0.0351

Output Bliss interaction score of CC(=O)Oc1ccccc1C(=O)O [Acetylsalicylicacid] + Cc1ncc([N+](=O)[O-])n1CCO [Metronidazole] -0.0652
